Entry source: patent US20230365563A1

Read-out record for KRAS_WT and SOS1 (Homo sapiens, UniProt P01116): IC50
Counter-ions that a name gives are not always drawn.
readout: IC50 (µM)

[[record]]
compound = "Oc1cc(-c2c(Cl)cc3c(N4CC5CCC(C4)N5)nc(OCCCN4CCCC4)nc3c2F)c2ccccc2c1 (single isomer, unassigned) [Compound 63a]"
readout = "IC50"
value_reported = 1.58

[[record]]
compound = "N=C(N)NCCCOc1nc(N2CC3CCC(C2)N3)c2cc(Cl)c(-c3cc(O)cc4ccccc34)c(F)c2n1 (single isomer, unassigned)"
readout = "IC50"
value_reported = 2.04

[[record]]
compound = "Oc1cc(-c2c(Cl)cc3c(N4CC5CCC(C4)N5)nc(OCCN4CCCCC4)nc3c2F)c2ccccc2c1 (single isomer, unassigned) [Compound 114, dihydrochloride]"
readout = "IC50"
value_reported = 4.53

[[record]]
compound = "Oc1cc(-c2c(Cl)cc3c(N4CC5CCC(C4)N5)nc(OCCCN4CCNCC4)nc3c2F)c2ccccc2c1 (single isomer, unassigned) [Compound 92, dihydrochloride]"
readout = "IC50"
value_reported = 4.71

[[record]]
compound = "C#Cc1c(F)ccc2cccc(-c3c(F)cc4c(N5CC6CCC(C5)N6)nc(OCCCN5C6CCC5COC6)nc4c3F)c12 (single isomer, unassigned) [Compound 272b]"
readout = "IC50"
value_reported = 4.26


* * *

subject-of-test: KRAS-G12D and SOS1 (Homo sapiens, UniProt P01116, G12D)
Sequence (P01116 1-188 isoform P01116-2 G12D): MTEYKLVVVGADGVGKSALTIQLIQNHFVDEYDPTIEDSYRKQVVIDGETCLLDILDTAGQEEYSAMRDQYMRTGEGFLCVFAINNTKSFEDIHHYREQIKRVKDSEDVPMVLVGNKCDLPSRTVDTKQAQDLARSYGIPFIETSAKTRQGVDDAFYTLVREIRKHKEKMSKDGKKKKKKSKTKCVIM
measurement-protocol: Inhibition of KRAS-G12D/SOS1 binding (Cisbio binding kit, 665/615 ratio), Effect Embodiment A
experimental-conditions: read-out: GTP-KRAS-G12D:SOS1 IC50
Item-by-item account of IC50
readout: IC50 (µM)

[[record]]
compound = "C#Cc1cccc2cc(O)cc(-c3c(F)cc4c(N5CC6CCC(C5)N6)nc(OCCCN5C6CCC5COC6)nc4c3F)c12 (single isomer, unassigned) [Compound 273b]"
readout = "IC50"
value_reported = 1.85

[[record]]
compound = "CN(C)C1CN(c2nc(N3CC4(CCNC4)C3)c3cc(Cl)c(-c4cc(O)cc5ccccc45)c(F)c3n2)C1 (single isomer, unassigned) [Compound 8b]"
readout = "IC50"
value_reported = 71

[[record]]
compound = "CCCN(C)CCCOc1nc(N2CC3CCC(C2)N3)c2cc(Cl)c(-c3cc(O)cc4ccccc34)c(F)c2n1 (single isomer, unassigned) [Compound 51b]"
readout = "IC50"
value_reported = 50.8


* * *

subject-of-test: KRAS-G12D and SOS1 (Homo sapiens, UniProt P01116, G12D)
measurement-protocol: Inhibition of KRAS-G12D/SOS1 binding (Cisbio binding kit, 665/615 ratio), Effect Embodiment A
experimental-conditions: read-out: GTP-KRAS-G12D:SOS1 IC50
pIC50: −log10 of the molar value. Where a name gives a salt, the structure may show the parent alone.
readout: pIC50

[[record]]
compound = "CN1CCC2(C1)CN(c1nc(N3CC4CCC(C3)N4)c3cc(Cl)c(-c4cc(O)cc5ccccc45)c(F)c3n1)C2 (single isomer, unassigned) [Compound 61a]"
value_reported = 6.64

[[record]]
compound = "CC(C)(CCOc1nc(N2CC3CCC(C2)N3)c2cc(Cl)c(-c3cc(O)cc4ccccc34)c(F)c2n1)N1CCCC1 (single isomer, unassigned) [Compound 123, dihydrochloride]"
value_reported = 6.98

[[record]]
compound = "CN1C[C@@H](F)C[C@H]1COc1nc(N2CC3CCC(C2)N3)c2cnc(-c3cc(O)cc4ccccc34)c(F)c2n1"
value_reported = 7.38

[[record]]
compound = "CN1CC(COc2nc(N3CC4CCC(C3)N4)c3cc(Cl)c(-c4cc(O)cc5ccccc45)c(F)c3n2)C1 (single isomer, unassigned)"
value_reported = 7.82

[[record]]
compound = "Oc1cc(-c2c(Cl)cc3c(N4CC5CCC(C4)N5)nc(OCCCN4CC5CCC4CO5)nc3c2F)c2ccccc2c1 (single isomer, unassigned) [Compound 187a]"
value_reported = 7.56

[[record]]
compound = "Oc1cc(-c2c(Cl)cc3c(N4CC5CCC(C4)N5)nc(OCC(F)CN4CCCC4)nc3c2F)c2ccccc2c1 (single isomer, unassigned) [Compound 109a, hydrochloride]"
value_reported = 7.57


* * *

subject-of-test: KRAS-G12D and SOS1 (Homo sapiens, UniProt P01116, G12D)
measurement-protocol: Inhibition of KRAS-G12D/SOS1 binding (Cisbio binding kit, 665/615 ratio), Effect Embodiment A
experimental-conditions: read-out: GTP-KRAS-G12D:SOS1 IC50
Structures can show the parent of a compound that is named as a salt.
readout: IC50 (nM)

[[record]]
compound = "CN(C)CC1(COc2nc(N3CC4CCC(C3)N4)c3cc(Cl)c(-c4cc(O)cc5ccccc45)c(F)c3n2)CC1 (single isomer, unassigned)"
value_reported = 16.9

[[record]]
compound = "CCc1c(F)ccc2cc(O)cc(-c3c(F)cc4c(N5CC6CCC(C5)N6)nc(OCCCN5C[C@@H](C)O[C@@H](C)C5)nc4c3F)c12 (single isomer, unassigned) [Compound 250a]"
value_reported = 8.42

[[record]]
compound = "CC(COc1nc(N2CC3CCC(C2)N3)c2cc(Cl)c(-c3cc(O)cc4ccccc34)c(F)c2n1)CN1C2CCC1COC2 (single isomer, unassigned) [Compound 178a]"
value_reported = 21.6

[[record]]
compound = "CN(C)C1CN(c2nc(N3C[C@H]4CC[C@@H]3CN4)c3cc(Cl)c(-c4cc(O)cc5ccccc45)c(F)c3n2)C1 (single isomer, unassigned) [Compound 1a]"
value_reported = 6440

[[record]]
compound = "Oc1cc(-c2c(Cl)cc3c(N4CC5CCC(C4)N5)nc(OCCCN4CCCCC4)nc3c2F)c2ccccc2c1 (single isomer, unassigned) [Compound 66b]"
value_reported = 18000

[[record]]
compound = "CC[C@@H]1CN(C[C@@H](C)COc2nc(N3CC4CCC(C3)N4)c3cc(Cl)c(-c4cc(O)cc5ccccc45)c(F)c3n2)C[C@H](CC)O1 (single isomer, unassigned)"
value_reported = 17.4

[[record]]
compound = "CN1CCCC[C@H]1COc1nc(N2CC3CCC(C2)N3)c2cc(Cl)c(-c3cc(O)cc4ccccc34)c(F)c2n1 (single isomer, unassigned) [Compound 56a, dihydrochloride]"
value_reported = 64.1

[[record]]
compound = "Oc1cc(-c2ncc3c(N4C[C@H]5CC[C@@H](C4)N5)nc(Oc4ccncc4)nc3c2F)c2ccccc2c1 [Compound 130, hydrochloride]"
value_reported = 842

[[record]]
compound = "CN1CCC[C@H]1COc1nc(N2CC3CCC(C2)N3)c2cc(Cl)c(-c3c(F)c(O)cc4ccccc34)c(F)c2n1 (single isomer, unassigned) [Compound 195a]"
value_reported = 8770

[[record]]
compound = "CC1OCCN(CCCOc2nc(N3CC4CCC(C3)N4)c3cc(Cl)c(-c4cc(O)cc5ccccc45)c(F)c3n2)C1C (single isomer, unassigned) [Compound 265a]"
value_reported = 91.2

[[record]]
compound = "Oc1cc(-c2c(Cl)cc3c(N4CC5CCC(C4)N5)nc(OCCCN4C5COCC4C5)nc3c2F)c2ccccc2c1 (single isomer, unassigned)"
value_reported = 62


* * *

subject-of-test: KRAS_G12D and cRAF (Homo sapiens, UniProt P01116, G12D)
Sequence (P01116 1-188 isoform P01116-2 G12D): as above
measurement-protocol: Inhibition of KRAS_G12D/cRAF binding (Cisbio binding kit, 665/615 ratio), Effect Embodiment B
experimental-conditions: read-out: GTP-KRAS-G12D:CRAF IC50
readout: IC50 (nM)

[[record]]
compound = "CCc1c(F)ccc2cc(O)cc(-c3c(F)cc4c(N5CC6CCC(C5)N6)nc(OCCCN5C[C@@H](C)O[C@@H](C)C5)nc4c3F)c12 (single isomer, unassigned) [Compound 250a]"
reading_unit = "nM"
value_reported = 14.6

[[record]]
compound = "C[C@@H](COc1nc(N2C[C@H]3CC[C@@H](C2)N3)c2cc(Cl)c(-c3cc(O)cc4ccccc34)c(F)c2n1)CN1[C@@H]2CCC[C@H]1COC2 (single isomer, unassigned) [Compound 210, diformate]"
reading_unit = "nM"
value_reported = 17.8

[[record]]
compound = "CO[C@@H](COc1nc(N2CC3CCC(C2)N3)c2cc(Cl)c(-c3cc(O)cc4ccccc34)c(F)c2n1)CN1C2CCCC1CC2 (single isomer, unassigned)"
reading_unit = "nM"
value_reported = 296

[[record]]
compound = "CO[C@@H]1C[C@@H](COc2nc(N3CC4CCC(C3)N4)c3cnc(-c4cc(O)cc5ccccc45)c(F)c3n2)N(C)C1"
reading_unit = "nM"
value_reported = 26.2

[[record]]
compound = "C[C@@H](COc1nc(N2CC3CCC(C2)N3)c2cc(Cl)c(-c3cc(O)cc4ccccc34)c(F)c2n1)CN1C[C@H](C)O[C@@H](C)C1 (single isomer, unassigned)"
reading_unit = "nM"
value_reported = 29.6

